Target: human SSTR5 (Homo sapiens, UniProt P35346)
Sequence (P35346 whole entry): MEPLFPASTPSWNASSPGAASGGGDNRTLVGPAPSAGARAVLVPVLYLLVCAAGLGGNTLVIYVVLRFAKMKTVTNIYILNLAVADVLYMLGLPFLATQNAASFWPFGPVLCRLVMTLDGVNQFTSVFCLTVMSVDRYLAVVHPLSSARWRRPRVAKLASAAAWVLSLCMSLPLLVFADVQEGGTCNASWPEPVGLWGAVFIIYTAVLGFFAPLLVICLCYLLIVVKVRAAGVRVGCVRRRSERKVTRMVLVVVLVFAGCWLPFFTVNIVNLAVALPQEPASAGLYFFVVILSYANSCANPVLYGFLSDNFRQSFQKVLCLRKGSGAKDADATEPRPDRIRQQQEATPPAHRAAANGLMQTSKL
Experiment: Inositol phosphate accumulation assay (IP1 HTRF, antagonist mode)
Conditions: CHO-K1 cells co-expressing human SSTR5 with Gqi5, SST28 agonist at concentration generating 90% of full activation
Protocol: CHO-K1 cells stably co-expressing human SSTR5 with Gqi5 were developed using Jump-In technology from Thermo-Fisher. […] TR-FRET was measured using a ClarioSTAR plate reader, calculating the ratio between emissions at 665 nm and 620 nm (HTRF ratio). […] IC50 and maximal inhibition values were determined using a standard 4-parameter fit.
reported-metric: IC50

Consider the worked cases shown below.
- smiles-input: "CCOc1cc(C(=O)OC)c(C2CC2)cc1CN1CCC2(CC1)CC(=O)N(c1ccc(C(=O)NC[C@H](O)CO)cc1)C2"
  IC50: "100 to 1000 nM"
- smiles-input: "CCOc1cc(C(=O)OC)c(C2CC2)cc1CN1CCC2(CC1)CC(=O)N(c1ccc(CC(=O)NCCNC(=O)NC(CO)(CO)CO)cc1)C2"
  IC50: "> 5000 nM"

Please find the next compound below.
Query :: Which IC50 is reported with human SSTR5 (Homo sapiens, UniProt P35346) for this entry: CCOc1cc(C(=O)OC)c(C2CC2)cc1CN1CCC2(CC1)CC(=O)N(c1ccc(C(=O)NCCCCS(=O)(=O)O)cc1)C2 ?
Result :: > 5000 nM

###

Molecular target: human SSTR5 (Homo sapiens)
Construct: expressed in transfected cells
Assay: Inositol phosphate accumulation assay (IP1 HTRF, antagonist mode)
Format: cell-based
Conditions: CHO-K1 cells co-expressing human SSTR5 with Gqi5, SST28 agonist at concentration generating 90% of full activation
Experimental: CHO-K1 cells stably co-expressing human SSTR5 with Gqi5 were developed using Jump-In technology from Thermo-Fisher. […] TR-FRET was measured using a ClarioSTAR plate reader, calculating the ratio between emissions at 665 nm and 620 nm (HTRF ratio). […] IC50 and maximal inhibition values were determined using a standard 4-parameter fit.
pIC50: −log10 of the molar value.
Field: pIC50. Provide a value for each of the compounds that follow.

Consider the worked cases shown below.
- smiles-input: "CCOc1cc(C(=O)OC)c(C2CC2)cc1CN1CCC2(CC1)CC(=O)N(c1ccc(C(=O)NCCCO)cc1)C2"
  reported-metric: "pIC50"
  value-reported: "< 5.30"
- smiles-input: "CCOc1cc(-c2ccc(F)cc2F)c(C2CC2)cc1CN1CCC2(CC1)CN(c1ccc(C(=O)NCCOCCO)cc1)C(=O)N2"
  reported-metric: "pIC50"
  value-reported: "≥ 7.00"

Please find the next compound below.
Query :: Any idea what its pIC50 is? The compound is CCOc1cc(-c2nc(C)no2)c(C2CC2)cc1CN1CCC2(CC1)CN(c1ccc(C(=O)NCCCS(=O)(=O)O)cc1)C(=O)N2
Result :: 6.00 to 7.00

Cited source for all entries: patent US20230113609A1
